Source: the RNAGym collection of RNA variant scans (doi:10.1073/pnas.2313332121)

B1: TPR 5TU (parent)
chain: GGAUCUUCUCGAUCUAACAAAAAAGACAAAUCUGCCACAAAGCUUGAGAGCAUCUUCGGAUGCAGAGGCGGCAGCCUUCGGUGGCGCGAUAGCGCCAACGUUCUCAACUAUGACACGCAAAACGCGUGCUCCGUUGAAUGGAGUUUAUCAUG

- Variants of: B1
- test summary: polymerase ribozyme fitness, log enrichment relative to wild type (log ratio); higher = more active; in vitro selection for triplet polymerase activity
Fewer inactive variants are shown than the library holds.
For each of the variants below, state its polymerase ribozyme fitness (log ratio).

polymerase ribozyme fitness (log ratio) for U4G C87A ?
≤ -4.2

Query A29G G34A A49U G59U C76U C108A A119G next
≤ -4.2

And the next one, G58A A60C C63A U82G G88C C95A A113G A147G ?
≤ -4.2

For C32A C75G G92A A150U then?
≤ -4.2

And the next one, A22G C72A G86C C87A A110U U127C C132A U146G ?
≤ -4.2

Input A66C A73C
≤ -4.2

A49C A52U G84A C105U G124U , same question.
≤ -4.2

Also check A49U U61A A138C G140C
≤ -4.2

What do you have for A24G A30U G42U C72U A91G A120C ?
≤ -4.2

Same question, A64C G88U A150C this time
≤ -4.2

Also check A12C A29C C85A G133A
≤ -4.2

Would you mind doing G48A C99U U111A A137G A147C as well?
≤ -4.2

Subsequent entry: C43U A66G C105A
≤ -4.2

Now the variant U9A U13G G42U U61A A91U A106G A142C
≤ -4.2

Now the same for C79G A98U C99U G133U
≤ -4.2

And the next one, U6C C32A A49U G70U U82G C87U C105G ?
≤ -4.2

Next: A40C U53G A66G A119G
≤ -4.2

Also check A3U A20C G58C A73U G81A A147C
≤ -4.2

Okay, and A37G A39C C87A C116U G136A ?
≤ -4.2

What would you report for A17C U61G C85U G126A G140U U151A G152C ?
≤ -4.2

Now try A16U A22C C27A C125A A150G .
≤ -4.2

Next up: U53A G58U C95A U144A C149A
≤ -4.2

Subsequent entry: A24C G46C A73G C93A A110U A147U
≤ -4.2

Continue with U33A C76G G84C C85G C87G A89G G136C U145A
≤ -4.2

U45G A66C C76A G86U C96U , same question.
≤ -4.2

Try this variant next: U9A A23C U31G A73U C93G A106G G117A G133A A150G
≤ -4.2

Let us now turn to C8G C54U G59C G81U C96A U144C
≤ -4.2

Item: A39G G59C U104A
-3.12

Entry to check: G11U A22C C87U
-2.61

And then G25U A30C A47C C99G U101G C105A , what is it?
≤ -4.2

# repeat for C36A G59A U144G
-3.49

Moving on to U13C U56G A115G
-2.32

And what about the variant A52C U77G C79U C87A C95U ?
≤ -4.2

Same lookup for U82G A137C , please.
-2.98

// query: U7A A28G A40U A49C G50C C87A U144G
≤ -4.2

Next up: C14G A24C A60G G62A G65C C87U U145G
≤ -4.2

// same read-out, input: A20C A40C U56A G92U
-0.349

U15G A26U C38G G42A U44A C95G C99U ?
≤ -4.2

Another variant: C85U A98G
-0.688

Subsequent entry: G74A U82G G94U G136A
≤ -4.2

Next: C54U U55C C72U C87A
≤ -4.2

Next: U55A G70A C123G
-3.3

Next variant up: A23G G48U G65C C72U G81C G83U
≤ -4.2

Can you handle C54U G58C next?
-0.858

Then what about the variant A3U G83A ?
-1.47

Another: A19U C96U
-0.369

And then A60G G70A C108G , what is it?
≤ -4.2

Field entry: A19U C75U G81C C99G A119G G140U
≤ -4.2

Record: C96U C149U
-0.874

Further, for C87A C93A C95G A121U U127G G140A ?
≤ -4.2

Try the variant C14G G84A
-2.16

Now this one: A41G C76A U77G G112A C116U A142C
≤ -4.2

Check C36U C95G C108A too.
-3.89

Please answer likewise for A12G C14G A52C G67A G124A A137C
≤ -4.2

Moving on to U101C A150G
-1.59

Try this variant next: G83C G136C U146G
-3.41

Same again, this time with G11U A47G U53A
-2.54

Okay, and C32G C99U ?
≤ -4.2

Repeat with C35G G42A U130G C131A
-4.12

Also need A30U G50A C57A C75U C85A G140U G143A , thanks.
≤ -4.2
